Numbers sourced from patent US5750696A.

For each of the compounds below, state its pIC50.
# STUDY_SYSTEM: renin activity in human plasma (Homo sapiens)
# Construct: Human plasma (200 μl)
# Sequence (P00797 67-406): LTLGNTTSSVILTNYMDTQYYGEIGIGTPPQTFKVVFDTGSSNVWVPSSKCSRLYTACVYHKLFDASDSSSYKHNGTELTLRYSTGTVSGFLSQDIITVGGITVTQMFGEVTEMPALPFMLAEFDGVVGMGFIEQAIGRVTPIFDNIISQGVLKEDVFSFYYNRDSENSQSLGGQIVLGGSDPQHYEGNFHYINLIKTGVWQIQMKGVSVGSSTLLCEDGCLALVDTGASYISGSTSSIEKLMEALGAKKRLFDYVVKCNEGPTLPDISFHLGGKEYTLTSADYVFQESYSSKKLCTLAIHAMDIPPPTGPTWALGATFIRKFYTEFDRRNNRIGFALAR
# ASSAY_SUMMARY: Inhibitory action on renin activity in human plasma
# SETUP_CONDITIONS: 37° C., 1 hour, angiotensin I by radio immunoassay
In simple prose, pIC50 is minus the logarithm base ten of a concentration in moles per litre.

input: Give pIC50 (renin activity in human plasma (Homo sapiens)) of the following compound: CN(C(=O)[C@H](Cc1ccccc1)NC(=O)N1CCCCC1)[C@@H](Cc1c[nH]cn1)C(=O)N[C@@H](CC1CCCCC1)[C@@H](O)C[C@H]1OCOC1(C)C [Example 2]
output: 7.68

input: Which measured pIC50 belongs to CC1(C)OCO[C@H]1C[C@H](O)[C@H](CC1CCCCC1)NC(=O)[C@H](Cc1c[nH]cn1)NC(=O)[C@H](Cc1ccccc1)OC(=O)N1CCCCC1 [Example 3] , tested on renin activity in human plasma (Homo sapiens)?
output: 8.15

input: Form field - read-out: pIC50; system: renin activity in human plasma (Homo sapiens); submitted item: CN(C(=O)[C@H](Cc1ccccc1)NC(=O)N1CCCCC1)[C@@H](Cc1c[nH]cn1)C(=O)N[C@@H](CC1CCCCC1)[C@@H](O)C[C@@H]1OC(C)(C)OC1(C)C [Example 11]
output: 7.89

input: State its pIC50 on renin activity in human plasma (Homo sapiens): CC1CCN(C(=O)N[C@@H](Cc2ccccc2)C(=O)N(C)[C@@H](Cc2c[nH]cn2)C(=O)N[C@@H](CC2CCCCC2)[C@@H](O)C[C@@H]2OCOC2(C)C)CC1 [Example 9]
output: 8.52

input: Give renin activity in human plasma (Homo sapiens) pIC50 for CSC[C@H](NC(=O)[C@H](Cc1ccccc1)OC(=O)N1CCN(C)CC1)C(=O)N[C@@H](CC1CCCCC1)[C@@H](O)C[C@@H]1OCOC1(C)C [Example 5]
output: 7.85
